Values of pKi reported for SA pol III (Staphylococcus aureus) appear below.
Scale note: pKi = -log10(concentration in M).

Study these solved cases before continuing.
compound: CCc1cc(Nc2cc(=O)n(CCOC)c(=O)[nH]2)ccc1C
reportedMeasurement: 6.09
//
compound: CCc1cc(Nc2cc(=O)[nH]c(=O)[nH]2)ccc1C [EMAU, 6-(3-ethyl-4-methylanilino)uracil, reference compound]
reportedMeasurement: 6.09

Q: Write pKi of CCc1cc(Nc2cc(=O)n(CCCOC)c(=O)[nH]2)ccc1C ; system used: SA pol III (Staphylococcus aureus)
Sequence (P0C1P9 whole entry): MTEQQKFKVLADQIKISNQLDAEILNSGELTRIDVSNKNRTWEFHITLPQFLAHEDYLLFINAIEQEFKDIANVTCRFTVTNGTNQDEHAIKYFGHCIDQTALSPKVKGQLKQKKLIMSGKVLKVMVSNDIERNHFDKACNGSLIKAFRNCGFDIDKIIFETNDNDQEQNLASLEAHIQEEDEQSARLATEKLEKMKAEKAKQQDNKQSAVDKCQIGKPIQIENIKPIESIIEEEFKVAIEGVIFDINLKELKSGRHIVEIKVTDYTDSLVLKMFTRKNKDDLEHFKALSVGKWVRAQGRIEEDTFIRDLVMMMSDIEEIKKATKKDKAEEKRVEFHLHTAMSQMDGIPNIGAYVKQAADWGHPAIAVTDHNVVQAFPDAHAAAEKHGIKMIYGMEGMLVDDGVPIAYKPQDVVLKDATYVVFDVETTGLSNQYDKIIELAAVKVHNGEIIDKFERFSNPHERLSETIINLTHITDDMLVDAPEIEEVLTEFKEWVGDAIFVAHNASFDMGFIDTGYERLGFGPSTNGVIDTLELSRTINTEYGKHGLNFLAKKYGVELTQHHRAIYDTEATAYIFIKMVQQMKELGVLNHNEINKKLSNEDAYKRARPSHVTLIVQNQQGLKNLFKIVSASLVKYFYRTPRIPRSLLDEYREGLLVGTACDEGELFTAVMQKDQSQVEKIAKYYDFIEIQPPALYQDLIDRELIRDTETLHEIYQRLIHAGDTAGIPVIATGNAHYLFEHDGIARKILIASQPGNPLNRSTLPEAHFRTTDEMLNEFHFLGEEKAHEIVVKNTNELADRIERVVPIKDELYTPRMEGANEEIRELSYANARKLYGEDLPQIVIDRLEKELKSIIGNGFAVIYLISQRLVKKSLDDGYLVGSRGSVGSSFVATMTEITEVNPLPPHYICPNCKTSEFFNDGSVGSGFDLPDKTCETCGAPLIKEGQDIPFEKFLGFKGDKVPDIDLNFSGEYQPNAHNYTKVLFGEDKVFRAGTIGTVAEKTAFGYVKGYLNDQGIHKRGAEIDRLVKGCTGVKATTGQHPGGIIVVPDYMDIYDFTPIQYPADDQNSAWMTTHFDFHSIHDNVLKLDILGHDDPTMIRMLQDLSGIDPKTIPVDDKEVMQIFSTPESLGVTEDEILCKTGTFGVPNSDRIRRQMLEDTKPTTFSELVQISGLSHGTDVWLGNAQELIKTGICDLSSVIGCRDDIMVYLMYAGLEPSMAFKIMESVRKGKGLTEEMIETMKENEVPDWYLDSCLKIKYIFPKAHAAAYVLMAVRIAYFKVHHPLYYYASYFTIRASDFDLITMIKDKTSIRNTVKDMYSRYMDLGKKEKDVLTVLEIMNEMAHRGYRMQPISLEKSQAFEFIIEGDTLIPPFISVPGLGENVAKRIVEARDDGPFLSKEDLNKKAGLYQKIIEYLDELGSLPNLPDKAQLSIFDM
Ans: 6.09

Q: Answer briefly: pKi recorded on SA pol III (Staphylococcus aureus) for CCc1cc(Nc2cc(=O)n(CCCO)c(=O)[nH]2)ccc1C
Ans: 6.38

Q: Under SA pol III (Staphylococcus aureus): report pKi of CCc1cc(Nc2cc(=O)n(CCO)c(=O)[nH]2)ccc1C .
Ans: 6.01
